Biological target: HDAC8 Cys102Ser/Cys153Ser/Cys131Ser (Homo sapiens, UniProt Q9BY41, C102S/C131S/C153S)
Construct: made in house
Assay: HDAC8 mutant biochemical assay
Conditions: read-out: IC50 [μM] @ 100 nM HDAC8: D Cys102Ser/Cys153Ser/Cys131Ser, 1 h preincubation
quantity.kind: log10 of IC50 (log10 of the value in µM)
// units: µM (pre-log); metric: IC50; scale: log10

// log10 of IC50 lookup, key: C[n+]1cccnc1Br [D2+]
1.26

Any idea what log10 of IC50 was measured for C[n+]1ccc(I)cc1 ?
1.56

log10 of IC50 lookup needed for C[n+]1ccccc1I , thanks.
1.62

# input compound: C#Cc1nccc[n+]1C ; wanted: its log10 of IC50
1.97

Reported log10 of IC50 for C#Cc1c[n+](C)ccn1 : what is it?
1.74

Dear colleague, I am looking for the recorded log10 of IC50 of the following compound: C[n+]1cncc(I)c1
1.18

GET /values?readout=log10 of IC50&item= C[n+]1cccnc1I
0.90

Consider the compound shown here: C#Cc1cc[n+](C)cc1 What is its recorded log10 of IC50?
0.52

Which measured log10 of IC50 value corresponds to C[n+]1cncc(Br)c1 ?
1.40

May I ask what log10 of IC50 has been recorded for C[n+]1cccnc1Cl [D1+] ?
1.69

###

Target: HDAC8 Cys102Ser/Cys153Ser/Cys287Ser (Homo sapiens, UniProt Q9BY41, C102S/C153S/C287S)
Construct: made in house
Assay: HDAC8 mutant biochemical assay
Details: read-out: IC50 [μM] @ 100 nM HDAC8: G Cys102Ser/Cys153Ser/Cys287Ser, 1 h preincubation
quantity.kind: IC50 (µM)
Numbers only here, please. The scale is µM.

Can you share its IC50? I mean this compound: C[n+]1cncc(Br)c1
95

Which IC50 is listed for C#Cc1c[n+](C)ccn1 ?
73

For C[n+]1cccnc1I , what is its reported IC50?
51

Which IC50 value belongs to C#Cc1cc[n+](C)cc1 ?
34

###

Molecular target: HDAC8 Cys102Ser/Cys153Ser/Cys125Ser (Homo sapiens, UniProt Q9BY41, C102S/C125S/C153S)
Construct: made in house
Sequence (Q9BY41 1-377 C102S/C125S/C153S): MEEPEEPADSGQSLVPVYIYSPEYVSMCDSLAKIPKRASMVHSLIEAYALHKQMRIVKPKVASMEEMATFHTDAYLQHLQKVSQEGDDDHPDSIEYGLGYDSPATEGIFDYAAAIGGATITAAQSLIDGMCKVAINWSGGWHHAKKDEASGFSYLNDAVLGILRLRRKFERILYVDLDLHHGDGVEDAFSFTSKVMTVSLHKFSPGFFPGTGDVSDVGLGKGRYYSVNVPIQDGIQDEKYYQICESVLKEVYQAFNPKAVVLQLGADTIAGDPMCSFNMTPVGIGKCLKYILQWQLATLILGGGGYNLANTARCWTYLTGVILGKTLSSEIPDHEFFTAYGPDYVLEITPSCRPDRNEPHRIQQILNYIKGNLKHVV
Assay: HDAC8 mutant biochemical assay
Conditions: read-out: IC50 [μM] @ 100 nM HDAC8: C Cys102Ser/Cys153Ser/Cys125Ser, 1 h preincubation
quantity.kind: IC50 (µM)
Write the answer as a number in µM, unit excluded.

Lab request: please report IC50 under test system HDAC8 Cys102Ser/Cys153Ser/Cys125Ser (Homo sapiens, UniProt Q9BY41, C102S/C125S/C153S) for C[n+]1ccc(I)cc1 [C3+]
81

// lookup IC50 | system=HDAC8 Cys102Ser/Cys153Ser/Cys125Ser (Homo sapiens, UniProt Q9BY41, C102S/C125S/C153S) | key= C[n+]1cccnc1Br [D2+]
52

Find IC50 (HDAC8 Cys102Ser/Cys153Ser/Cys125Ser (Homo sapiens, UniProt Q9BY41, C102S/C125S/C153S)) for the entry C[n+]1cccnc1I [D3+]
14

Notebook: pull reported IC50 for HDAC8 Cys102Ser/Cys153Ser/Cys125Ser (Homo sapiens, UniProt Q9BY41, C102S/C125S/C153S), entry C#Cc1c[n+](C)ccn1 [G6+]
126

Field: IC50 (HDAC8 Cys102Ser/Cys153Ser/Cys125Ser (Homo sapiens, UniProt Q9BY41, C102S/C125S/C153S)). Entry: C[n+]1cccnc1Cl [D1+]
82

Value wanted: IC50 (HDAC8 Cys102Ser/Cys153Ser/Cys125Ser (Homo sapiens, UniProt Q9BY41, C102S/C125S/C153S)) of entry C[n+]1ccccc1I [A3+]
65

Under HDAC8 Cys102Ser/Cys153Ser/Cys125Ser (Homo sapiens, UniProt Q9BY41, C102S/C125S/C153S): IC50 value of C[n+]1cncc(Br)c1 [F2+] ?
56

Fill in the recorded IC50 for this molecule, with HDAC8 Cys102Ser/Cys153Ser/Cys125Ser (Homo sapiens, UniProt Q9BY41, C102S/C125S/C153S) as test system: C#Cc1cc[n+](C)cc1 [C6+]
15

###

Kindly supply the reported IC50 values for the records listed here.
Molecular target: HDAC8 Cys102Ser/Cys153Ser/Cys314Ser (Homo sapiens, UniProt Q9BY41, C102S/C153S/C314S)
Construct: made in house
Experiment: HDAC8 mutant biochemical assay
Conditions: read-out: IC50 [μM] @ 100 nM HDAC8: H Cys102Ser/Cys153Ser/Cys314Ser, 1 h preincubation
Protocol: HDAC8 mutant variants were generated, produced, and further purified as described previously.[32] […] The enzyme activity assay was performed in assay buffer [25 mM Tris-HCl (pH 8.0), 50 mM NaCl, and 0.001% (v/v) Pluronic F-68] in black half-area 96-well microplates (Greiner Bio-One). […] IC50 values were calculated by generating dose–response curves in GraphPad Prism 6 and fitting those to a four-parameter logistic model.
Give just the number in µM; leave the unit off.

Endpoint output: IC50 of C[n+]1cncc(I)c1 . Value?
19

Quick one: IC50 for C[n+]1cccnc1I ?
20

What IC50 value was documented for this molecule, C[n+]1ccc(I)cc1 ?
14

Find the recorded IC50 belonging to C[n+]1ccccc1I and report it.
92

Report IC50 for C[n+]1cncc(Br)c1 please.
74

Which IC50 value is on record for C#Cc1cc[n+](C)cc1 ?
100

###

Tested on: OCI-AML3 cells
Assay: CellTiter-Blue cell viability assay
Assay type: cell-based
Conditions: Homo sapiens, OCI-AML-3; 72 h, HDAC8-dependent line, Figure 7B
quantity.kind: pIC50
As a rule, pIC50 stands for the negative log10 of the concentration, concentration in M.

Form: Entry = C#Cc1c[n+](C)ccc1NC(=O)CC(=O)N1Cc2ccccc2C1.[I-] | System = OCI-AML3 cells | pIC50 = ____
4.57

###

Biological target: HDAC8 Cys102Ser/Cys153Ser/Cys352Ser (Homo sapiens, UniProt Q9BY41, C102S/C153S/C352S)
Construct: made in house
Test: HDAC8 mutant biochemical assay
Conditions: read-out: IC50 [μM] @ 100 nM HDAC8: I Cys102Ser/Cys153Ser/Cys352Ser, 1 h preincubation
Would you kindly list IC50 for each of these molecules?
Be sure to follow the number with its unit.

Find the recorded IC50 belonging to C[n+]1cncc(Br)c1 [F2+] and report it.
15 µM

Name the recorded IC50 for C[n+]1ccccc1I [A3+] .
36 µM

Any idea what IC50 was measured for C#Cc1c[n+](C)ccn1 [G6+] ?
59 µM

Recorded IC50 for C[n+]1cncc(I)c1 [F3+] , please?
29 µM

Look up IC50: C[n+]1ccc(I)cc1 [C3+]
29 µM

# lookup: IC50 of C#Cc1cc[n+](C)cc1 [C6+]
9 µM

# get_value(readout='IC50', item= C[n+]1cccnc1I [D3+] )
11 µM

Which IC50 is listed for C#Cc1nccc[n+]1C [D6+] ?
118 µM

// IC50 lookup, key: C[n+]1cccnc1Cl [D1+]
41 µM

Fill in: IC50 of C[n+]1cccnc1Br [D2+] is ___
15 µM

###

Target: HDAC8 Cys102Ser/Cys153Ser (Homo sapiens, UniProt Q9BY41, C102S/C153S)
Construct: made in house
Experiment: HDAC8 mutant biochemical assay
Conditions: read-out: IC50 [μM] @ 100 nM HDAC8: A Cys102Ser/Cys153Ser, 1 h preincubation
Consider the following compounds; for each one, report its IC50.
Give the quantity in µM, number only.

Param item = C[n+]1ccccc1I [A3+] ; retrieve measured IC50.
59

# get_value(readout='IC50', item= C[n+]1cncc(I)c1 [F3+] )
16

I'd like to know its IC50. The compound in question is C[n+]1cccnc1I [D3+]
14

Please look up its IC50: C#Cc1c[n+](C)ccn1 [G6+]
97

For the compound shown here, C[n+]1cccnc1Cl [D1+] , give the reported IC50.
60

Fill in: IC50 of C[n+]1cncc(Br)c1 [F2+] is ___
29

Name the reported IC50 value associated with the compound C[n+]1cccnc1Br [D2+]
23

What value of IC50 has been reported for the following compound? C[n+]1ccc(I)cc1 [C3+]
68

So what does the record say about IC50 for C#Cc1cc[n+](C)cc1 [C6+] ?
14
